system: 857933-349-R-J2-PDC complex spheroid viability; assay: Anticancer human tumor 857933-349-R-J2-PDC patient-derived colon adenocarcinoma cell line growth inhibition [POLQ]; conditions: second compound 10 µM; first compound 0.316 µM; stronger effect = lower value;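 also: spheroids exposed to compounds for seven days before readout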
EXPERIMENTAL ENDPOINT: viability, T/C

Prompt: Look up viability, T/C: COc1cc(C2c3cc4c(cc3C(OC3OC5COC(C)OC5C(O)C3O)C3COC(=O)C23)OCO4)cc(OC)c1O (stereo not drawn) + COC1C(OC(N)=O)C(O)C(Oc2ccc3c(O)c(NC(=O)c4ccc(O)c(CC=C(C)C)c4)c(=O)oc3c2C)OC1(C)C
Response: 54.6%

Prompt: If you can, please state the reported viability, T/C value of COc1cc(C2c3cc4c(cc3C(OC3OC5COC(C)OC5C(O)C3O)C3COC(=O)C23)OCO4)cc(OC)c1O (stereo not drawn) + Nc1ccc(C#CCN(C(=O)Cc2ncc(C(F)(F)F)cc2C(F)(F)F)c2ccc(F)cc2)nn1 .
Response: 60%

Prompt: Entry C#Cc1c(F)ccc2cc(O)cc(-c3ncc4c(N5CC6CCC(C5)N6)nc(OCC56CCCN5CC(F)C6)nc4c3F)c12 (stereo not drawn) + Cc1cccc(N(C)C(=O)C2C(O)CCN2c2nc(C)cc(C(F)(F)F)c2C#N)c1 : reported viability, T/C = ?
Response: 91%
